target: lysosomal mannosidase (Homo sapiens, UniProt O00754); experiment: biochemical; settings: Lysosomal Mannosidase Activity (μM)
Sequence (O00754 50-1011): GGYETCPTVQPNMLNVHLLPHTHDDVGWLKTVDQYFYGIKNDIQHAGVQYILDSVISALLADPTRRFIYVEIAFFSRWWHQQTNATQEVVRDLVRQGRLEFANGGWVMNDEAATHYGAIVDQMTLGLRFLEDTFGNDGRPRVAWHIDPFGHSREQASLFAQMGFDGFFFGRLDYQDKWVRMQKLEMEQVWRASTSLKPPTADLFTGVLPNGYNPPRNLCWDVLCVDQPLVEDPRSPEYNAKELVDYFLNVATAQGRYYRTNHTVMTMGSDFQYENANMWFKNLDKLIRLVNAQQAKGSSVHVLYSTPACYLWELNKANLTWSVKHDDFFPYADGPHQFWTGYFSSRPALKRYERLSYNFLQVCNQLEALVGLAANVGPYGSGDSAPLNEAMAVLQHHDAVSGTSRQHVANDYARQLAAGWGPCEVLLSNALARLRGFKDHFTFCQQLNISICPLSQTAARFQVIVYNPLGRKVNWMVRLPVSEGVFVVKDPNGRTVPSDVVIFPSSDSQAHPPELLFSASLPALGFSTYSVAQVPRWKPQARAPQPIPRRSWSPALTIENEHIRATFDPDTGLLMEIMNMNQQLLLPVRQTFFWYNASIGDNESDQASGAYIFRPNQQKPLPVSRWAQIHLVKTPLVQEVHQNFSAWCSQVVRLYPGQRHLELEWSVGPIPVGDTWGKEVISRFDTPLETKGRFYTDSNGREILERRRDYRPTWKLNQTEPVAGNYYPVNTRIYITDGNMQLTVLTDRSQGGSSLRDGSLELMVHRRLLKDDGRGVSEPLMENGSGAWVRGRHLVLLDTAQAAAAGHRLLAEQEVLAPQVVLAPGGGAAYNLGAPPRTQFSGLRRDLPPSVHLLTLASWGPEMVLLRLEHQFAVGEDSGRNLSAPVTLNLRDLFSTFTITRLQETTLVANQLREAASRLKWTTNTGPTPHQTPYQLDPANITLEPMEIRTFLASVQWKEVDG
measured-metric: IC50 (µM)
Write the value in µM as a bare number.

Query: IC50; subject: O[C@H]1[C@H]2[C@H](O)CCCN2C[C@H]1O [Swainsonine, reference compound]
0.08

* * *

Reported IC50 values, Golgi α-mannosidase II (Canavalia ensiformis, UniProt C0HJB3).
Quick reminder: number only, in µM, skip the unit.

| molecule | value-units | IC50 |
| --- | --- | --- |
| O=C1[C@H](O)[C@@H](O)[C@@H]2[C@H](O)CCCN12 | µM | 1030 |

Golgi α-mannosidase II (Canavalia ensiformis, UniProt C0HJB3) / IC50 / OCC1C(O)C(O)C2C(O)CCCN12 (centres unmarked) [EJH-4-263, 3-hydroxymethyl-swainsonine] : value?
1.83

* * *

target: UniProtKB O00754; experiment: biochemical; conditions: sodium acetate pH 5.0, 60 min at 37° C., p-nitrophenol read at 405; read-out: Lysosomal Mannosidase Activity
pIC50: −log10 of the molar value.
Decision: pIC50 compared against 6; not below it gives t, below it gives f.

Answered cases to consult:
| molecule | group-label |
| --- | --- |
| CC[C@H]1CC[C@@H](O)[C@@H]2[C@H](O)[C@H](O)CN12 | t |
| C[C@@H]1[C@H](CO)C[C@@H](O)[C@@H]2[C@H](O)[C@H](O)CN21 | f |
| OCC1C(O)C(O)C2C(O)CCCN12 (stereo not shown) [EJH-4-263, 3-hydroxymethyl-swainsonine] | f |
| O=C1[C@H](O)[C@@H](O)[C@@H]2[C@H](O)CCCN12 | f |
| CC1CCC(O)C2C(O)C(O)CN12 (single isomer, unassigned) [GD 20] | f |
| CCOC(=O)[C@H]1C[C@H](O)[C@@H]2[C@@H](O)[C@H](O)CN2[C@H]1C | f |
| N#CC1C(O)[C@@H](O)C2[C@H](O)CCCN12 (stereo in doubt) | f |
| OCC1C(O)C(O)C2C(O)CCCN12 (stereo not shown) [EJH-4-264, 3-hydroxymethyl-swainsonine] | f |

Textbook exercise: given the entry OC1CN2C(COCc3ccccc3)CCC(O)C2C1O (single isomer, unassigned) [GD42] , state whether its pIC50 is greater than or equal to 6.
t

Tell me whether pIC50 is at least 6 here: CCOC(=O)C1CC(O)C2C(O)C(O)CN2C1C (stereo not shown)
f

Reported pIC50 at or above 6? `C[C@H]1[C@@H](CO)C[C@@H](O)[C@@H]2[C@H](O)[C@H](O)CN21`
f

* * *

IC50 for assorted compounds
target: UniProtKB O00754; assay: biochemical; conditions: sodium acetate pH 5.0, 60 min at 37° C., p-nitrophenol read at 405; read-out: Lysosomal Mannosidase Activity
Number only, in µM; omit the unit.

| compound | measured-metric | experimental-value |
| --- | --- | --- |
| CC1CCC(O)C2C(O)C(O)CN12 (single isomer, unassigned) [GD 28] | IC50 | 0.316 |
| CC1CCC(O)C2C(O)C(O)CN12 (single isomer, unassigned) [GD37] | IC50 | 28.2 |
| OC1CN2C(COCc3ccccc3)CCC(O)C2C1O (single isomer, unassigned) [GD 91] | IC50 | 3.23 |

State its IC50 on UniProtKB O00754: OC[C@H]1CC[C@@H](O)[C@@H]2[C@H](O)[C@H](O)CN12 [GD45, (5R)-5-(Hydroxymethyl)swainsonine]
0.705
